Sourced from ChEMBL document CHEMBL1157623

system: A549; test: Antiproliferative activity against human A549 cells after 3 days by sulforhodamine B assay; type: functional, cell-based; settings: A549, 72 h
Observable: pIC50
Answers are plain numbers, as −log10 of the molar value.

>>> measurement("CC1(C)N2Cc3[nH]c4ccccc4c3C[C@H]2C(=O)N1[C@@H](COCc1ccccc1)C(=O)OCc1ccccc1")
4.63

Below are 3 compounds. Give each one its pIC50.
1. C[C@@H](C(=O)OCc1ccccc1)N1C(=O)[C@@H]2Cc3c([nH]c4ccccc34)CN2C1(C)C
2. CC1(C)N2Cc3[nH]c4ccccc4c3C[C@H]2C(=O)N1[C@@H](CC(N)=O)C(=O)OCc1ccccc1
3. CC1(C)N2Cc3[nH]c4ccccc4c3C[C@H]2C(=O)N1[C@@H](Cc1ccc(O)cc1)C(=O)OCc1ccccc1

1. 4.23
2. 4.40
3. 6.92

---

system: Mus musculus; experiment: Toxicity in ICR mouse xenografted with mouse S180 cells assessed as body weight at 1 mg/kg, ip administered 24 hrs after tumor implantation daily for 7 consecutive days measured after 24 hrs of last dose (Rvb=33.3 +/- 2.32 g); format: organism-based, CCRF S-180; design: dose 1 mg/kg, route intraperitoneal; details: in vivo
Observable: Activity

Below are 4 molecules. Give each one its Activity.
1. CC1(C)N2Cc3[nH]c4ccccc4c3C[C@H]2C(=O)N1[C@@H](CC(=O)OCc1ccccc1)C(=O)OCc1ccccc1
2. COc1cccc2c1C(=O)c1c(O)c3c(c(O)c1C2=O)C[C@@](O)(C(=O)CO)C[C@@H]3O[C@H]1C[C@H](N)[C@H](O)[C@H](C)O1 [DOXORUBICIN]
3. CC1(C)N(CC(=O)OCc2ccccc2)C(=O)[C@@H]2Cc3c([nH]c4ccccc34)CN21
4. CC1(C)N2Cc3[nH]c4ccccc4c3C[C@H]2C(=O)N1[C@@H](Cc1ccc(O)cc1)C(=O)OCc1ccccc1

1. 33.37 g
2. 27.28 g
3. 33.75 g
4. 35.85 g

---

Kindly supply the reported Activity values for the records listed here.
test system: Mus musculus; assay: Toxicity in ICR mouse xenografted with mouse S180 cells assessed as kidney weight at 1 mg/kg, ip administered 24 hrs after tumor implantation daily for 7 consecutive days measured after 24 hrs of last dose (Rvb=0.23 +/- 0.02 g); assay type: organism-based, CCRF S-180; design: dose 1 mg/kg, route intraperitoneal; conditions: in vivo
Give bare numbers, in g.

Examples with their reported Activity follow.
>>> measurement("CC1(C)N(CC(=O)OCc2ccccc2)C(=O)[C@@H]2Cc3c([nH]c4ccccc34)CN21")
0.22
>>> measurement("CC1(C)N2Cc3[nH]c4ccccc4c3C[C@H]2C(=O)N1[C@@H](Cc1ccc(O)cc1)C(=O)OCc1ccccc1")
0.23
>>> measurement("CC1(C)N2Cc3[nH]c4ccccc4c3C[C@H]2C(=O)N1[C@@H](CC(=O)OCc1ccccc1)C(=O)OCc1ccccc1")
0.23

Next, consider the following molecule.
// COc1cccc2c1C(=O)c1c(O)c3c(c(O)c1C2=O)C[C@@](O)(C(=O)CO)C[C@@H]3O[C@H]1C[C@H](N)[C@H](O)[C@H](C)O1 [DOXORUBICIN] : Activity value = 0.19

---

Kindly supply the reported Activity values for the records listed here.
test system: Mus musculus; test: Toxicity in ICR mouse xenografted with mouse S180 cells assessed as heart weight at 1 mg/kg, ip administered 24 hrs after tumor implantation daily for 7 consecutive days measured after 24 hrs of last dose (Rvb=0.17 +/- 0.01 g); format: organism-based, CCRF S-180; set-up: dose 1 mg/kg, route intraperitoneal; conditions: in vivo
One number for each entry, in g.

>>> measurement("COc1cccc2c1C(=O)c1c(O)c3c(c(O)c1C2=O)C[C@@](O)(C(=O)CO)C[C@@H]3O[C@H]1C[C@H](N)[C@H](O)[C@H](C)O1 [DOXORUBICIN]")
0.15
>>> measurement("CC1(C)N2Cc3[nH]c4ccccc4c3C[C@H]2C(=O)N1[C@@H](Cc1ccc(O)cc1)C(=O)OCc1ccccc1")
0.16
>>> measurement("CC1(C)N2Cc3[nH]c4ccccc4c3C[C@H]2C(=O)N1[C@@H](CC(=O)OCc1ccccc1)C(=O)OCc1ccccc1")
0.17

// `CC1(C)N(CC(=O)OCc2ccccc2)C(=O)[C@@H]2Cc3c([nH]c4ccccc34)CN21` : Activity value = 0.16
